Test system: Nc-β-gal tachyzoites
Assay: In vitro proliferation assay with N. caninum β-gal tachyzoites in HFF monolayers
Type: cell-based, Neospora caninum
Conditions: Neospora caninum, 72 h, read-out: IC50 Nc-β-gal Pre-infection, compound added concomitantly to infection of HFF; read at 72 h post-infection
Procedure: N. caninum strain NcSpain-7 and the transgenic strain N. caninum Nc1 expressing β-galactosidase (Nc-β-gal) were grown and maintained in HFF ([Aguado-Martínez et al., 2016]). T. gondii ME49 and T. gondii β-gal tachyzoites (RH background, Tg-β-gal) were cultured as previously described ([Winzer et al., 2015]). […] The effects of the compound on HFF viability were assessed by resazurin reduction assay, following the protocols of previous studies ([Anghel et al., 2020]).
measurement-label: pIC50
Numbers only, as −log10 of the molar value.

Form: Entry = CC(C)(CO)Cn1nc(-c2ccc3cc(OC4CC4)ccc3c2)c(C(N)=O)c1N | System = Nc-β-gal tachyzoites | pIC50 = ____
6.32

* * *

tested on: Tg-β-gal tachyzoites; assay: In vitro proliferation assay with T. gondii β-gal tachyzoites in HFF monolayers; format: cell-based, Toxoplasma gondii; details: read-out: IC50 Tg-β-gal Pre-infection; compound added concomitantly to infection of HFF; read at 72 h post-infection
measurement-label: pIC50
Answers are plain numbers, as −log10 of the molar value.

Any idea what pIC50 was measured for CC(C)(CO)Cn1nc(-c2ccc3cc(OC4CC4)ccc3c2)c(C(N)=O)c1N ?
6.91

* * *

Test system: Nc-β-gal tachyzoites
Test: In vitro proliferation assay with N. caninum β-gal tachyzoites in HFF monolayers
Type: cell-based, Neospora caninum
Settings: read-out: IC50 Nc-β-gal Pre-infection; compound added concomitantly to infection of HFF; read at 72 h post-infection
Experimental: N. caninum strain NcSpain-7 and the transgenic strain N. caninum Nc1 expressing β-galactosidase (Nc-β-gal) were grown and maintained in HFF ([Aguado-Martínez et al., 2016]). T. gondii ME49 and T. gondii β-gal tachyzoites (RH background, Tg-β-gal) were cultured as previously described ([Winzer et al., 2015]). […] The effects of the compound on HFF viability were assessed by resazurin reduction assay, following the protocols of previous studies ([Anghel et al., 2020]).
measurement-label: pIC50
Answers are plain numbers, as −log10 of the molar value.

Any idea what pIC50 was measured for CC(C)(CO)Cn1nc(-c2ccc3cc(OC4CC4)ccc3c2)c(C(N)=O)c1N ?
6.32
